Entries and their measured growth inhibition follow.
- Experiment notes: NCI Yeast Anticancer Drug Screen. Data for the rad50 strain (AID 155);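 note: 0% = growth of vehicle-only cultures of the same strain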
- Setup conditions: S. cerevisiae rad50 strain growth inhibition; at 50.0 µM; hits give high values
About 79,000 compounds went through this panel and 15% of them were active in at least one assay; those are over-represented in the sample as a whole.
Reported property: growth inhibition (%)

{"Compound": "Cc1ccc([NH-])cc1C.Cc1ccc([NH-])cc1C.[Cl][Pt+2][Cl]", "Reported value": 34.2}
{"Compound": "CN1CCC23CC=CCC2C1Cc1ccc([N+](=O)[O-])cc13 (stereo unspecified)", "Reported value": -4.15}
{"Compound": "CNC(=S)P(c1ccccc1)c1ccccc1", "Reported value": 9.4}
{"Compound": "CC(=O)SCCC(NC(=S)Nc1ccccc1)P(=O)(Oc1ccccc1)Oc1ccccc1 (stereo unspecified)", "Reported value": -17.9}
{"Compound": "CCNC(=O)C(C)Br (stereo unspecified)", "Reported value": 19.4}
{"Compound": "CCC1CN2CCC3(C(=O)Nc4ccccc43)C2CC1/C(=C/OC)C(=O)OC (stereo unspecified)", "Reported value": -1.8}
{"Compound": "COc1ccc(/C=C/c2cc(OC)c3c(c2)OCO3)cc1O", "Reported value": 4.4}
{"Compound": "COc1cc(C(CC(C)=O)c2cc3c(cc2OC(C)=O)OCO3)cc(OC)c1OC (stereo unspecified) (tested in a mixture with another compound)", "Reported value": 5.1}
{"Compound": "c1ccc2c(c1)sc1sc3c([n+]12)CCCC3", "Reported value": 6.25}
{"Compound": "Cc1ccc(Cl)c([N+](=O)[O-])c1", "Reported value": -23.7}
{"Compound": "CS(=O)(=O)CS(=O)(=O)OCCF", "Reported value": 5}

###

- Experiment notes: NCI Yeast Anticancer Drug Screen. Data for the sgs1 mgt1 strain (AID 161);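 note: 0% = growth of cultures given vehicle only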
- Setup conditions: S. cerevisiae sgs1 mgt1 strain, at 50.0 µM, hits give high values
About 79,000 compounds went through this panel and 15% of them were active in at least one assay; those are over-represented in the sample as a whole.

{"Molecule": "CCC1(c2ccccc2)C(=O)N(C)C(=O)N(CCCl)C1=O (stereo not given)", "growth inhibition, %": -0.8}
{"Molecule": "C[CH2][Sn]([CH2]C(=O)OC)([CH2]C(=O)OC)[c]1ccccc1", "growth inhibition, %": 87.8}
{"Molecule": "COc1cc(C2c3cc4c(cc3OC(NNS(=O)(=O)c3ccc(C)cc3)C2C)OCO4)cc(OC)c1O (stereo not given)", "growth inhibition, %": -15.8}
{"Molecule": "COc1ccc(/C=C/c2cc(OC)c3c(c2)OCO3)cc1O", "growth inhibition, %": -9.55}
{"Molecule": "CCC1(O)C(=O)OCc2c1cc1n(c2=O)Cc2cc3ccc(C=O)cc3nc2-1 (stereo not given)", "growth inhibition, %": -17.5}
{"Molecule": "c1ccc(-c2sc3cccc[n+]3c2-c2ccccc2)cc1", "growth inhibition, %": -14.5}
{"Molecule": "CC1=C(CC/C(C)=C/CCC2(C)CCC([C@H](C)C(=O)O)OO2)C(C)(C)CCC1 (stereo not given in full) (tested in a mixture with another compound)", "growth inhibition, %": 93}
{"Molecule": "O=C(/C=C/c1ccccc1)Nc1ccc(Cl)cc1C(=O)c1ccccc1", "growth inhibition, %": 7.6}
{"Molecule": "CN1CCOC12CCC1(C)C(CCC3C4CCC(O)C4(C)CCC31)C2 (stereo not given)", "growth inhibition, %": 58}
{"Molecule": "CCN(CC)C(=O)CCN1CC1", "growth inhibition, %": 12.3}

###

- Experiment notes: NCI Yeast Anticancer Drug Screen. Data for the mec2-1 strain (AID 157)
- Setup conditions: S. cerevisiae mec2-1 strain, at 5.0 µM (retest, dose inferred, filed as 0.5), hits give high values
This is part of a sample that, as a whole, favours compounds with a hit. Of some 79,000 tested, about 15% had one in any assay.
If the reported growth inhibition equals or exceeds 10%, assign yes (1). If not, assign no (0).

{"Molecule": "CC(=O)[C-](Cl)C(C)=O.CC(=O)[C-](Cl)C(C)=O.CC(=O)[C-](Cl)C(C)=O.[Ru+3]", "Label class": "yes (1)"}
{"Molecule": "CC(=O)O[C@@H]1[C@@H](O)[C@H]2O[C@@H]3C=C(C)C(=O)[C@@H](O)[C@]3(CO)[C@]1(C)[C@]21CO1", "Label class": "yes (1)"}
{"Molecule": "O=P(c1ccccc1)(c1ccccc1)c1ccccc1.[Cl][Sn]([c]1ccccc1)([c]1ccccc1)[c]1ccccc1", "Label class": "yes (1)"}
{"Molecule": "C#CC1(OC(C)=O)CCC2C3CC=C4C=C(OC(C)=O)CCC4(C)C3CCC21C (stereo unspecified)", "Label class": "no (0)"}
{"Molecule": "CC[C@@H](C)[C@@H]1NC(=O)C(NC(=O)C(CC(C)C)N(C)C(=O)C2CCCN2C(=O)C(C)O)C(C)OC(=O)C(Cc2ccc(OC)cc2)N(C)C(=O)C2CCCN2C(=O)C(CC(C)C)NC(=O)C(C)C(=O)C(C(C)C)OC(=O)C[C@H]1O (stereo partly specified)", "Label class": "yes (1)"}
{"Molecule": "CCC[CH2][Sn]1([CH2]CCC)[O]CC(COc2c(Cl)cc(Cl)cc2Cl)[O]1 (stereo unspecified)", "Label class": "yes (1)"}
{"Molecule": "COc1ccc([As]=[As]c2ccc(OC)c(I)c2)cc1I (stereo unspecified)", "Label class": "yes (1)"}
{"Molecule": "Nc1c([N+](=O)[O-])cc(Cl)cc1[N+](=O)[O-]", "Label class": "no (0)"}
{"Molecule": "Cc1ccc(OP(=O)(Oc2ccc(C)cc2)Oc2ccc(C)cc2)cc1.Cc1ccc(OP(=O)(Oc2ccc(C)cc2)Oc2ccc(C)cc2)cc1.Cc1ccc(OP(=O)(Oc2ccc(C)cc2)Oc2ccc(C)cc2)cc1.Cc1ccc(OP(=O)(Oc2ccc(C)cc2)Oc2cccc(C)c2)cc1.[Cd+2].[O-][Cl+3]([O-])([O-])O", "Label class": "no (0)"}
{"Molecule": "Nc1ccc(C(=O)O)c(C(=O)O)c1.[Cl][Sn]([Cl])([Cl])[Cl]", "Label class": "no (0)"}
{"Molecule": "O=[N+]([O-])C=C([SH2+])[SH2+].O=[N+]([O-])C=C([SH2+])[SH2+].[Ni+2].c1ccc(C[P+](c2ccccc2)(c2ccccc2)c2ccccc2)cc1", "Label class": "no (0)"}
{"Molecule": "O=C(OCC(CCl)OC(=O)C(Cl)(Cl)Cl)C(Cl)(Cl)Cl (stereo unspecified)", "Label class": "yes (1)"}
{"Molecule": "CC/C(=C/c1ccc(OC)cc1OC)[N+](=O)[O-]", "Label class": "yes (1)"}
{"Molecule": "CCC[CH2][Sn]1([CH2]CCC)[O]C(=O)c2ccc(C)cc2[O]1", "Label class": "yes (1)"}
{"Molecule": "NCCNCCNCCNCCN (tested in a mixture with another compound)", "Label class": "no (0)"}
{"Molecule": "CC1(CO)C(O)CCC2(C)C1CCC1CC3CC12CCC3(O)CO (stereo unspecified)", "Label class": "yes (1)"}

###

In this section we review reported growth inhibition values for a set of compounds.
- Experiment notes: NCI Yeast Anticancer Drug Screen. Data for the bub3 strain (AID 167)
- Setup conditions: S. cerevisiae bub3 mutant strain, at 50.0 µM, hits give high values
- Protocol: Growth inhibition of yeast strains with defined genetic alterations is measured as a screen for potential anti-cancer activity. Selected strains with alterations in DNA damage repair or cell cycle control were exposed to compounds and growth inhibition was measured relative to vehicle treated controls. The strain used in this assay is bub3
This is part of a sample that, as a whole, favours compounds with a hit. Of some 79,000 tested, about 15% had one in any assay.

{"Compound": "O=C1NC(=O)C(CCC(=O)c2ccc3ccccc3c2)C(=O)N1", "Result unit": "%", "growth inhibition": -34.8}
{"Compound": "Cc1csc(CP(=O)(OC(C)C)OC(C)C)n1", "Result unit": "%", "growth inhibition": 3.35}
{"Compound": "NC(=O)/C=C/c1ccc([As]=O)cc1 (centres undefined)", "Result unit": "%", "growth inhibition": 98.7}
{"Compound": "COc1cc(OC)c(/C=C(\\C)[N+](=O)[O-])cc1Br", "Result unit": "%", "growth inhibition": 92.2}
{"Compound": "O.O.O=Cc1ccccc1O.O=Cc1ccccc1O.[Co]", "Result unit": "%", "growth inhibition": 92.5}
{"Compound": "CN(C)C(=O)Oc1c(Cl)cccc1Cl", "Result unit": "%", "growth inhibition": 36.8}
{"Compound": "CC[C@H]1CN2CCc3c([nH]c4ccccc34)[C@@H]2C[C@@H]1/C(=C/OC)C(=O)OC (tested in a mixture with another compound)", "Result unit": "%", "growth inhibition": -32.9}
{"Compound": "C1=C(/C=C2\\CCCc3c(-c4ccccc4)cc(-c4ccccc4)[o+]c32)CCC/C1=C\\C1=C2OC(c3ccccc3)=CC(c3ccccc3)=C2CCC1", "Result unit": "%", "growth inhibition": 71.2}
{"Compound": "CC(C)N1COC2Cc3ccccc3CC21 (centres undefined)", "Result unit": "%", "growth inhibition": -20.2}
{"Compound": "CC[C@@]1(O)C(=O)OCc2c1c(Cl)c1n(c2=O)Cc2cc3ccccc3nc2-1", "Result unit": "%", "growth inhibition": -28.5}
{"Compound": "CCCC[P+](C#Cc1ccccc1)(CCCC)CCCC", "Result unit": "%", "growth inhibition": -3.2}
{"Compound": "Cc1ccc(C(=O)C2C(c3ccccc3)N2Cc2ccccc2)cc1 (centres undefined)", "Result unit": "%", "growth inhibition": 30.6}
{"Compound": "C[C@H]1CC[C@@]2(NC1)O[C@H]1C[C@H]3[C@@H]4CC[C@H]5C[C@@H](O)CC[C@]5(C)[C@H]4CC[C@]3(C)[C@H]1[C@@H]2C", "Result unit": "%", "growth inhibition": 92.5}
{"Compound": "CN(C)N(P(N)(Cl)(c1ccccc1)c1ccccc1)P(N)(Cl)(c1ccccc1)c1ccccc1", "Result unit": "%", "growth inhibition": 49.5}
{"Compound": "O=[N+]([O-])C=C([SH2+])[SH2+].O=[N+]([O-])C=C([SH2+])[SH2+].[Ni+2].c1ccc(C[P+](c2ccccc2)(c2ccccc2)c2ccccc2)cc1", "Result unit": "%", "growth inhibition": 96.2}
{"Compound": "Cc1nc2ccccc2[se]1", "Result unit": "%", "growth inhibition": 35.7}
{"Compound": "CC[S+](C)c1ccc(-c2c3nc(c(-c4ccc([S+](C)CC)cc4)c4ccc([nH]4)c(-c4ccc([S+](C)CC)cc4)c4nc(c(-c5ccc([S+](C)CC)cc5)c5ccc2[nH]5)C=C4)C=C3)cc1 (centres undefined)", "Result unit": "%", "growth inhibition": 89}
{"Compound": "ClC1=C(Cl)C2(Cl)C3C(C4(Cl)C(Cl)=C(Cl)C3(Cl)C4(Cl)Cl)C2(Cl)C1(Cl)Cl (centres undefined)", "Result unit": "%", "growth inhibition": -2.4}
{"Compound": "OC1(CN2CCCCC2)N=C(c2ccccc2)c2ccsc2-n2cccc21 (centres undefined)", "Result unit": "%", "growth inhibition": -11.5}
{"Compound": "COc1cccc(C=C2C(=O)NC(=S)NC2=O)c1O", "Result unit": "%", "growth inhibition": -2.25}
{"Compound": "CCC(=O)O[C@H]1CC[C@H]2[C@@H]3CCC4=C/C(=N/NC(=O)c5cccc6c(=O)c7ccccc7[nH]c56)CC[C@]4(C)[C@H]3CC[C@]12C", "Result unit": "%", "growth inhibition": -17.2}
{"Compound": "Cc1c([N+](=O)[O-])cc2c(c1[N+](=O)[O-])C(C)(C)CC2(C)C", "Result unit": "%", "growth inhibition": 14.8}
{"Compound": "CCCCc1ccc(N=C(N)N)cc1", "Result unit": "%", "growth inhibition": 12.2}
{"Compound": "COc1cc(/C=C/[N+](=O)[O-])cc(Br)c1OC", "Result unit": "%", "growth inhibition": 91.5}
{"Compound": "OCC1C(/C=C/c2ccoc2)ON2CCCC12 (centres undefined)", "Result unit": "%", "growth inhibition": 18.1}
{"Compound": "[Be]=[Se]", "Result unit": "%", "growth inhibition": -11.4}
{"Compound": "C=NCC#N", "Result unit": "%", "growth inhibition": 5.25}
{"Compound": "CC(=O)OC1OC(CS[As](C)CCO)C(OC(C)=O)C(OC(C)=O)C1OC(C)=O (centres undefined)", "Result unit": "%", "growth inhibition": -0.85}
{"Compound": "CC12CCC3C(CCC4(C)CC(OC(=O)Cc5ccc(N(CCCl)CCCl)cc5)CCC34C)C1CCC2=O (centres undefined)", "Result unit": "%", "growth inhibition": -4.8}
{"Compound": "OC1CC([CH2][Hg][I])OC([CH2][Hg][I])C1 (centres undefined)", "Result unit": "%", "growth inhibition": 98.5}
{"Compound": "O=C1CC2CCCC(C1)N2Cc1ccccc1", "Result unit": "%", "growth inhibition": 34.9}
{"Compound": "CCN(CC)CCc1ccccn1", "Result unit": "%", "growth inhibition": -14.4}
{"Compound": "CC(C)CCCC(C)C1CCC2C3CC=C4CC(OC(=O)CN5CC5)CCC4(C)C3CCC12C (centres undefined)", "Result unit": "%", "growth inhibition": 18.8}
{"Compound": "O=P1(N(CCCl)CCCl)Oc2c(Cl)cc(Cl)c(Cl)c2Cc2c(Cl)c(Cl)cc(Cl)c2O1", "Result unit": "%", "growth inhibition": -14.2}
{"Compound": "CCOC(=O)NP(=O)(Nc1ccccc1)Nc1ccccc1", "Result unit": "%", "growth inhibition": -5.1}
{"Compound": "C[CH2][Hg]", "Result unit": "%", "growth inhibition": 99.2}
{"Compound": "COCCCNP(=O)(OC(C)C)OC(C)C", "Result unit": "%", "growth inhibition": 9.2}
{"Compound": "Nc1cccc([As]=S)c1 (centres undefined)", "Result unit": "%", "growth inhibition": 98.8}
{"Compound": "Cc1cccc(C(=O)[O][Pb]([CH3])([CH3])[CH3])c1", "Result unit": "%", "growth inhibition": -9.65}
{"Compound": "NCC#CCNCCCN1CC1", "Result unit": "%", "growth inhibition": -1.55}
{"Compound": "C[C@]12Cc3cn4ncnc4nc3CC1CC[C@@H]1[C@@H]2CC[C@]2(C)C(O)CC[C@@H]12 (some centres undefined)", "Result unit": "%", "growth inhibition": 97}
{"Compound": "CC(C=O)[Se]c1ccccc1 (centres undefined)", "Result unit": "%", "growth inhibition": 86.8}
{"Compound": "CC1=CC2C(C=C1)S(=O)(=O)N1CC21c1ccccc1 (centres undefined)", "Result unit": "%", "growth inhibition": -20.6}
{"Compound": "NC(=O)COc1ccc([As]=O)cc1 (centres undefined)", "Result unit": "%", "growth inhibition": -33.3}
